Source of measurements: the supplement of paper PMC10126150

Below is a list of entries, each paired with its recorded switch fluorescence ratio value.
- Tested on: ATP;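 further: ATP exposure 15 min at 22 °C before imaging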
- method-description: switch fluorescence ratio, 500 uM ATP over buffer (Cy3 cluster intensity, sum of 5 cycles each) (fold (ratio)); higher = stronger signal-on switching upon ATP binding; sequences stand for … in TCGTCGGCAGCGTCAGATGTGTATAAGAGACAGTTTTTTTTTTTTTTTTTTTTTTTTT…TC
- condition-label: aptamer strand: ATP DNA aptamer (quencher-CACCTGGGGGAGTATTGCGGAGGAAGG + anchor), 100 nM annealed; ATP concentration: 500 uM
Please state the value as a number alone, without comment.

Endpoint output: switch fluorescence ratio of `TAAGGCTACA` . Value?
1.01

Endpoint output: switch fluorescence ratio of `GTTAACTTTG` . Value?
1

Endpoint output: switch fluorescence ratio of `TATGGGAGGG` . Value?
0.952

Endpoint output: switch fluorescence ratio of `ACGGGTGGCG` . Value?
0.95

Endpoint output: switch fluorescence ratio of `AGTACAATGC` . Value?
1.47

Endpoint output: switch fluorescence ratio of `TTTATCAATT` . Value?
0.991

Endpoint output: switch fluorescence ratio of `CCTGGCATTG` . Value?
1.18

====

- System: ATP;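 further: ATP exposure 15 min at 22 °C before imaging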
- method-description: switch fluorescence ratio, 500 uM ATP over buffer (Cy3 cluster intensity, sum of 5 cycles each) (fold (ratio)); higher = stronger signal-on switching upon ATP binding; sequences stand for … in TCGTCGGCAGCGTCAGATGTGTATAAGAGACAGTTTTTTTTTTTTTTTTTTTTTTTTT…TC
- condition-label: aptamer strand: ATP DNA aptamer (quencher-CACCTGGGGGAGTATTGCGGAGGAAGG + anchor), 100 nM annealed; ATP concentration: 500 uM
parameter-measured: switch fluorescence ratio

Some sequences with recorded switch fluorescence ratio:
[[record]]
polymer_sequence = "ACAGCTGAAG"
system = "ATP"
recorded_measurement = 1

[[record]]
polymer_sequence = "CAGAGGAGTG"
system = "ATP"
recorded_measurement = 0.974

[[record]]
polymer_sequence = "TTTGTGCCGG"
system = "ATP"
recorded_measurement = 1.01


Form field: switch fluorescence ratio recorded for `CGATGGGGTG` with ATP (enter value)
0.998

Form field: switch fluorescence ratio recorded for `CTATATGAAG` with ATP (enter value)
0.98

Form field: switch fluorescence ratio recorded for `GGTAGAGGGG` with ATP (enter value)
0.963

Form field: switch fluorescence ratio recorded for `CGGTTGGGTA` with ATP (enter value)
0.977

Form field: switch fluorescence ratio recorded for `TAGGAGGAGT` with ATP (enter value)
0.951

Form field: switch fluorescence ratio recorded for `CGTAAAATAC` with ATP (enter value)
2.85

Form field: switch fluorescence ratio recorded for `TATGTATATA` with ATP (enter value)
1.01

Form field: switch fluorescence ratio recorded for `ACAGTTGTTA` with ATP (enter value)
0.987

Form field: switch fluorescence ratio recorded for `ATTGGAAGGC` with ATP (enter value)
0.967

====

- Tested on: ATP;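 further: ATP exposure 15 min at 22 °C before imaging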
- method-description: switch fluorescence ratio, 500 uM ATP over buffer (Cy3 cluster intensity, sum of 5 cycles each) (fold (ratio)); higher = stronger signal-on switching upon ATP binding; sequences stand for … in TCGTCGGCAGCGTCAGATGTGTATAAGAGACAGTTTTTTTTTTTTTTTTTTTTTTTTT…TC
- condition-label: aptamer strand: ATP DNA aptamer (quencher-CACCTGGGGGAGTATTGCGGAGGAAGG + anchor), 100 nM annealed; ATP concentration: 500 uM
Below is a list of entries, each paired with its recorded switch fluorescence ratio value.
Please state the value as a number alone, without comment.

Endpoint output: switch fluorescence ratio of `TCGATGCGTG` . Value?
1.01

Endpoint output: switch fluorescence ratio of `AAAATTTATG` . Value?
1.01

Endpoint output: switch fluorescence ratio of `AAGTGGGTTA` . Value?
1.02

Endpoint output: switch fluorescence ratio of `GTTATTTACG` . Value?
1.02

Endpoint output: switch fluorescence ratio of `TCATTTATTG` . Value?
1.02

Endpoint output: switch fluorescence ratio of `AGATGAATGC` . Value?
0.989

Endpoint output: switch fluorescence ratio of `CTTAGGGGTC` . Value?
0.997

Endpoint output: switch fluorescence ratio of `GGAATCGGTG` . Value?
0.996

Endpoint output: switch fluorescence ratio of `GCCATTAGCA` . Value?
1.02

Endpoint output: switch fluorescence ratio of `GTTGATGCCG` . Value?
1

Endpoint output: switch fluorescence ratio of `AGGTCGTCGT` . Value?
0.955

Endpoint output: switch fluorescence ratio of `CAGGGGGGAC` . Value?
1
